Data origin: patent US10227388B2

Target: HLA-A*02:01 (Homo sapiens, UniProt P04439, D140Y/D185E/D98H/E176V/E277Q/G131W/G231S/I119V/I121R/I166T/I218V/L300P/L318F/N151K/N90K/P208A/P217A/Q86G/Q94H/R138H/R169H/T345S)
Assay: MHC binding assay (UV-ligand exchange, ELISA, peptide exchange yield)
Settings: binding of HLA-class I restricted peptides to HLA-A*02:01
Readout: Peptide exchange (MHC class I binding score, peptide exchange yield)

- Substance: "4 (GIMEHITKI; listed as Homo sapiens) [compound 4]"
  Result: "″++++″ (≥75% = ++++)"
- Substance: "309 (GLFDGVPTTA; listed as Homo sapiens) [compound 309]"
  Result: "″+++″ (≥50% = +++)"
- Substance: "468 (YLRSVGDGETV; listed as Homo sapiens) [compound 468]"
  Result: "″+++″ (≥50% = +++)"
- Substance: "488 (FLAEDPKVTL; listed as Homo sapiens) [compound 488]"
  Result: "″+++″ (≥50% = +++)"
- Substance: "478 (YLLHEKLNL; listed as Homo sapiens) [compound 478]"
  Result: "″+++″ (≥50% = +++)"
- Substance: "251 (ALYTGFSILV; listed as Homo sapiens) [compound 251]"
  Result: "″++″ (≥20% = ++)"
- Substance: "601 (SAFPFPVTV; listed as Homo sapiens) [compound 601]"
  Result: "″+++″ (≥50% = +++)"
- Substance: "452 (ILLEHGADPNL; listed as Homo sapiens) [compound 452]"
  Result: "″+++″ (≥50% = +++)"
- Substance: "244 (SLFGGTEITI; listed as Homo sapiens) [compound 244]"
  Result: "″+++″ (≥50% = +++)"
- Substance: "270 (LLLDEEGTFSL; listed as Homo sapiens) [compound 270]"
  Result: "″++″ (≥20% = ++)"
- Substance: "457 (SLLPGNLVEKV; listed as Homo sapiens) [compound 457]"
  Result: "″+++″ (≥50% = +++)"
- Substance: "623 (YLVEDIQHI; listed as Homo sapiens) [compound 623]"
  Result: "″+++″ (≥50% = +++)"
- Substance: "184 (YLMDINGKMWL; listed as Homo sapiens) [compound 184]"
  Result: "″+++″ (≥50% = +++)"
- Substance: "257 (SIFSAFLSV; listed as Homo sapiens) [compound 257]"
  Result: "″+++″ (≥50% = +++)"
- Substance: "81 (FLFSQLQYL; listed as Homo sapiens) [compound 81]"
  Result: "″++″ (≥20% = ++)"
- Substance: "395 (ALALGGIAVV; listed as Homo sapiens) [compound 395]"
  Result: "″++++″ (≥75% = ++++)"
- Substance: "75 (GLLEVMVNL; listed as Homo sapiens) [compound 75]"
  Result: "″+++″ (≥50% = +++)"
- Substance: "369 (GLFPEHLIDV; listed as Homo sapiens) [compound 369]"
  Result: "″+++″ (≥50% = +++)"
- Substance: "442 (GLLGGGGVLGV; listed as Homo sapiens) [compound 442]"
  Result: "″+++″ (≥50% = +++)"

====

Molecular target: HLA-A*02:01 (Homo sapiens, UniProt P04439, D140Y/D185E/D98H/E176V/E277Q/G131W/G231S/I119V/I121R/I166T/I218V/L300P/L318F/N151K/N90K/P208A/P217A/Q86G/Q94H/R138H/R169H/T345S)
Assay: MHC binding assay (UV-ligand exchange, ELISA, peptide exchange yield)
Conditions: binding of HLA-class I restricted peptides to HLA-A*02:01
Readout: Peptide exchange (MHC class I binding score, peptide exchange yield)

- Substance: "380 (TLIEDEIATI; listed as Homo sapiens) [compound 380]"
  Result: "″++″ (≥20% = ++)"
- Substance: "372 (TMLLNIPLV; listed as Homo sapiens) [compound 372]"
  Result: "″++″ (≥20% = ++)"
- Substance: "546 (VMIAGKVAVV; listed as Homo sapiens) [compound 546]"
  Result: "″+++″ (≥50% = +++)"
- Substance: "46 (ILTEENIHL; listed as Homo sapiens) [compound 46]"
  Result: "″+++″ (≥50% = +++)"
- Substance: "59 (IMEDIILTL; listed as Homo sapiens) [compound 59]"
  Result: "″+++″ (≥50% = +++)"

====

Biological target: HLA-A*02:01 (Homo sapiens, UniProt P04439, D140Y/D185E/D98H/E176V/E277Q/G131W/G231S/I119V/I121R/I166T/I218V/L300P/L318F/N151K/N90K/P208A/P217A/Q86G/Q94H/R138H/R169H/T345S)
Assay: MHC binding assay (UV-ligand exchange, ELISA, peptide exchange yield)
Conditions: binding of HLA-class I restricted peptides to HLA-A*02:01
Source text: Candidate peptides for T cell based therapies according to the present invention were further tested for their MHC binding capacity (affinity). The individual peptide-MHC complexes were produced by UV-ligand exchange, where a UV-sensitive peptide is cleaved upon UV-irradiation, and exchanged with the peptide of interest as analyzed. Only peptide candidates that can effectively bind and stabilize the peptide-receptive MHC molecules prevent dissociation of the MHC complexes. […]
Readout: Peptide exchange (MHC class I binding score, peptide exchange yield)

- Substance: "73 (NIFDLQIYV; listed as Homo sapiens) [compound 73]"
  Result: "″+++″ (≥50% = +++)"
- Substance: "232 (ALLEAQDVELYL; listed as Homo sapiens) [compound 232]"
  Result: "″++″ (≥20% = ++)"
- Substance: "586 (KLKPGDLVGV; listed as Homo sapiens) [compound 586]"
  Result: "″+++″ (≥50% = +++)"
- Substance: "564 (TVTNAVVTV; listed as Homo sapiens) [compound 564]"
  Result: "″+++″ (≥50% = +++)"
- Substance: "297 (VLADIELAQA; listed as Homo sapiens) [compound 297]"
  Result: "″+++″ (≥50% = +++)"
- Substance: "88 (FLLVGDLMAV; listed as Homo sapiens) [compound 88]"
  Result: "″+++″ (≥50% = +++)"
- Substance: "216 (NLWEDPYYL; listed as Homo sapiens) [compound 216]"
  Result: "″+++″ (≥50% = +++)"
- Substance: "157 (SLNDEVPEV; listed as Homo sapiens) [compound 157]"
  Result: "″++″ (≥20% = ++)"
- Substance: "224 (TLIDAQWVL; listed as Homo sapiens) [compound 224]"
  Result: "″+++″ (≥50% = +++)"
- Substance: "39 (SVAPNLPAV; listed as Homo sapiens) [compound 39]"
  Result: "″+++″ (≥50% = +++)"
- Substance: "129 (GLLDGGVDILL; listed as Homo sapiens) [compound 129]"
  Result: "″+++″ (≥50% = +++)"
- Substance: "166 (YLNHLEPPV; listed as Homo sapiens) [compound 166]"
  Result: "″+++″ (≥50% = +++)"
- Substance: "284 (ILLSQTTGV; listed as Homo sapiens) [compound 284]"
  Result: "″+++″ (≥50% = +++)"
- Substance: "402 (VLFSGALLGL; listed as Homo sapiens) [compound 402]"
  Result: "″++″ (≥20% = ++)"
- Substance: "313 (VLFDDELLMV; listed as Homo sapiens) [compound 313]"
  Result: "″+++″ (≥50% = +++)"
- Substance: "161 (ALLEGVNTV; listed as Homo sapiens) [compound 161]"
  Result: "″+++″ (≥50% = +++)"
- Substance: "367 (SLQNHNHQL; listed as Homo sapiens) [compound 367]"
  Result: "″+++″ (≥50% = +++)"
- Substance: "327 (GLAPFTEGISFV; listed as Homo sapiens) [compound 327]"
  Result: "″+++″ (≥50% = +++)"

====

Target: HLA-A*02:01 (Homo sapiens, UniProt P04439, D140Y/D185E/D98H/E176V/E277Q/G131W/G231S/I119V/I121R/I166T/I218V/L300P/L318F/N151K/N90K/P208A/P217A/Q86G/Q94H/R138H/R169H/T345S)
Test: MHC binding assay (UV-ligand exchange, ELISA, peptide exchange yield)
Details: binding of HLA-class I restricted peptides to HLA-A*02:01
Readout: Peptide exchange (MHC class I binding score, peptide exchange yield)

- Substance: "198 (KTINKVPTV; listed as Homo sapiens) [compound 198]"
  Result: "″+++″ (≥50% = +++)"
- Substance: "174 (ALAQYLITA; listed as Homo sapiens) [compound 174]"
  Result: "″+++″ (≥50% = +++)"
- Substance: "93 (LLQAIKLYL; listed as Homo sapiens) [compound 93]"
  Result: "″++″ (≥20% = ++)"
- Substance: "12 (SLWPDPMEV; listed as Homo sapiens) [compound 12]"
  Result: "″+++″ (≥50% = +++)"
- Substance: "168 (KILDADIQL; listed as Homo sapiens) [compound 168]"
  Result: "″++++″ (≥75% = ++++)"
- Substance: "396 (ALLPDLPAL; listed as Homo sapiens) [compound 396]"
  Result: "″+++″ (≥50% = +++)"
- Substance: "374 (FLLQQHLISA; listed as Homo sapiens) [compound 374]"
  Result: "″++″ (≥20% = ++)"
- Substance: "302 (ALLQEGEVYSA; listed as Homo sapiens) [compound 302]"
  Result: "″+++″ (≥50% = +++)"
- Substance: "487 (LLINSVFHV; listed as Homo sapiens) [compound 487]"
  Result: "″+++″ (≥50% = +++)"
- Substance: "145 (FLATSGTLAGI; listed as Homo sapiens) [compound 145]"
  Result: "″++″ (≥20% = ++)"
- Substance: "18 (YLVAKLVEV; listed as Homo sapiens) [compound 18]"
  Result: "″++″ (≥20% = ++)"
- Substance: "33 (VLLSLLEKV; listed as Homo sapiens) [compound 33]"
  Result: "″++″ (≥20% = ++)"
- Substance: "479 (SLFGNSGILENV; listed as Homo sapiens) [compound 479]"
  Result: "″+++″ (≥50% = +++)"
- Substance: "613 (RLLPPGAVVAV; listed as Homo sapiens) [compound 613]"
  Result: "″+++″ (≥50% = +++)"
- Substance: "409 (LLDAMNYHL; listed as Homo sapiens) [compound 409]"
  Result: "″++″ (≥20% = ++)"
- Substance: "118 (KLIDNNINV; listed as Homo sapiens) [compound 118]"
  Result: "″+++″ (≥50% = +++)"
- Substance: "56 (KLYEGIPVLL; listed as Homo sapiens) [compound 56]"
  Result: "″++++″ (≥75% = ++++)"
- Substance: "228 (AMQEYIAVV; listed as Homo sapiens) [compound 228]"
  Result: "″++″ (≥20% = ++)"
- Substance: "53 (KMIETDILQKV; listed as Homo sapiens) [compound 53]"
  Result: "″++++″ (≥75% = ++++)"
